- TESTED SYSTEM: T1, biotinylated hOX40L (R&D Systems, biotinylated in house) (human, UniProt P23510 51-183, biotinylated with Sulfo-NHS-LC-Biotin, sites not stated)
- T1 construct: same bought protein as m10, biotinylated; also called biotinylated OX40L
- T1 sequence: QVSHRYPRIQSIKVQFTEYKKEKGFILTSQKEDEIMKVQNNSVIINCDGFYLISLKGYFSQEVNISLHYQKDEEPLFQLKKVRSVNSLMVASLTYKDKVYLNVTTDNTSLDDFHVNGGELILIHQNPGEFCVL
- METHOD DESCRIPTION: hOX40L/hOX40 AlphaScreen, assay 1, native
- Experimental: Next, streptavidin donor beads were added and incubated for an additional 1 hour. Fluorescence was measured by reading plates on the EnVision Multilabel Plate Reader using an excitation wavelength of 680 nm and an emission wavelength of 520 nm. […]
Entries annotated with measured IC50
READOUT TYPE: IC50 (nM)

BINDER	READOUT TYPE	UNIT OF MEASURE	MEASURED RESULT
OX40L043 (VHH, not shown: small tags and cut ends) VHH: DVQLVESGGGLVQPGGSLRLSCAASRSIGRLDRMGWYRHRTGKPRELVATITGGSSINYGDFVKGRFTISRDNSKNTVYLQMNSLRPEDTAVYYCNFNKYVTSRDTWGQGTLVTVSS	IC50	nM	0.101
OX40L050 (VHH, not shown: small tags and cut ends) VHH: DVQLVESGGGLVQPGGSLRLSCAASRSIGRLDRMGWYRHRTGEPRELVATITGGSSINYADSVKGRFTISRDNSKNTVYLQMNSLRPEDTAVYYCNFNKYVTSRDTWGQGTLVTVSS	IC50	nM	0.046
OX40L049 (VHH, not shown: small tags and cut ends) VHH: DVQLVESGGGLVQPGGSLRLSCAASRSIGRLDRMGWYRHRTGEPRELVATITGGSSINYGDSVKGRFTISRDNSKNTVYLQMNSLRPEDTAVYYCNFNKYVTSRDTWGQGTLVTVSS	IC50	nM	0.035
OX40L042 (VHH, not shown: small tags and cut ends) VHH: DVQLVESGGGLVQPGGSLRLSCAASRSIGRLDRMGWYRHRPGEPRELVATITGGSSINYGDFVKGRFTISRDNSKNTVYLQMNSLRPEDTAVYYCNFNKYVTSRDTWGQGTLVTVSS	IC50	nM	0.057
OX40L047 (VHH, not shown: small tags and cut ends) VHH: DVQLVESGGGLVQPGGSLRLSCAASRSIGRLDRMGWYRHAPGKPRELVATITGGSSINYGDFVKGRFTISRDNSKNTVYLQMNSLRPEDTAVYYCNFNKYVTSRDTWGQGTLVTVSS	IC50	nM	0.269
OX40L046 (VHH, not shown: small tags and cut ends) VHH: DVQLVESGGGLVQPGGSLRLSCAASRSIGRLDRMGWYRHRPGKPRELVATITGGSSINYGDFVKGRFTISRDNSKNTVYLQMNSLRPEDTAVYYCNFNKYVTSRDTWGQGTLVTVSS	IC50	nM	0.084
OX40L15B07 (VHH, monovalent Nanobody from E. coli; not shown: C-terminal c-myc and His6 tag) VHH: EVQLVESGGGLVQAGGSLRLSCAASRSIGRLDRMGWYRHRTGEPRELVATITGGSSINYGDFVKGRFTISIDNAKNTVYLQMNNLKPEDTAVYYCNFNKYVTSRDTWGQGTQVTVSS	IC50	nM	0.102
OX40L040 (VHH, not shown: small tags and cut ends) VHH: DVQLVESGGGLVQPGGSLRLSCAASRSIGRLDRMGWYRHRTGEPRELVATITGGSSINYGDFVKGRFTISRDNSKNTVYLQMNSLRPEDTAVYYCNFNKYVTSRDTWGQGTLVTVSS	IC50	nM	0.046
OX40L030 (VHH, not shown: small tags and cut ends) VHH: DVQLVESGGGLVQAGGSLRLSCAASRSIGRLDRMGWYRHRTGEPRELVATITGGSSINYGDFVKGRFTISIDNAKNTVYLQMNNLKPEDTAVYYCNFNKYVTSRDTWGQGTQVTVSS	IC50	nM	0.076
OX40L045 (VHH, not shown: small tags and cut ends) VHH: DVQLVESGGGLVQPGGSLRLSCAASRSIGRLDRMGWYRHATGKPRELVATITGGSSINYGDFVKGRFTISRDNSKNTVYLQMNSLRPEDTAVYYCNFNKYVTSRDTWGQGTLVTVSS	IC50	nM	0.152
OX40L041 (VHH, not shown: small tags and cut ends) VHH: DVQLVESGGGLVQPGGSLRLSCAASRSIGRLDRMGWYRHATGEPRELVATITGGSSINYGDFVKGRFTISRDNSKNTVYLQMNSLRPEDTAVYYCNFNKYVTSRDTWGQGTLVTVSS	IC50	nM	0.127
OX40L044 (VHH, not shown: small tags and cut ends) VHH: DVQLVESGGGLVQPGGSLRLSCAASRSIGRLDRMGWYRHAPGEPRELVATITGGSSINYGDFVKGRFTISRDNSKNTVYLQMNSLRPEDTAVYYCNFNKYVTSRDTWGQGTLVTVSS	IC50	nM	0.065
OX40L048 (VHH, not shown: small tags and cut ends) VHH: DVQLVESGGGLVQPGGSLRLSCAASRSIGRLDRMGWYRHRTGEPRELVATITGGSSINYADFVKGRFTISRDNSKNTVYLQMNSLRPEDTAVYYCNFNKYVTSRDTWGQGTLVTVSS	IC50	nM	0.093
